Reported melting point by item:

Record excerpt, results attached:
Documented melting point of CC(C)(C)NC(=O)[C@@H]1C[C@H](Cl)CN1C(=O)[C@@H](O)[C@@H](N)Cc1ccccc1 : 126 to 130 °C

// field: melting point; key: O=C(O)c1cc(=O)n(Cc2ccc(S(=O)(=O)O)cc2S(=O)(=O)O)[nH]1 ; value = > 300 °C

Reported melting point ( COc1ccc(N2CCOCC2)c2sc(NC(=O)N(C)[C@H]3CC[C@H](O)CC3)nc12 ) = 158 to 162 °C

Per the records, this molecule ( C=C(C)CCOc1c(-c2ccc(S(C)(=O)=O)cc2)cnn(-c2cccc(Cl)c2)c1=O ) has melting point equal to 110 to 112 °C

Lookup result for CN(CCSc1ccc2ncc([N+](=O)[O-])n2n1)c1ccnc(CO)c1Cl ; measured melting point: 189 to 191 °C

Further cases:
# melting point of CC(=O)C(=C1SCCCN1C(C)=O)[N+](=O)[O-] = 73.5 to 76 °C

Lab book: melting point of CCOC(=O)C1=C(C)NC(C)=C([N+](=O)[O-])C1c1cccnc1 (centres undefined) noted as 264 °C

Entry COc1ccc2c(c1)C(C)(C)[C@H]1CCCN(C(C)=O)[C@H]1C2 (relative stereo) , melting point reported as 81 to 85 °C

The molecule listed as CC(=O)OC(CN1C(=O)N(C(C)=O)C2(CC(C)(C)N(C(C)=O)C(C)(C)C2)C1=O)CN1C(=O)N(C(C)=O)C2(CC(C)(C)N(C(C)=O)C(C)(C)C2)C1=O shows melting point equal to 286 to 288 °C

// O=C(O)CN1CC(=O)N(Cc2ccc(Cl)c([N+](=O)[O-])c2)C1=O : melting point value = 167 to 168 °C

melting point for CC(C)c1ccc(S(=O)(=O)Nc2ccc(N3CCC(NC(=O)OC(C)(C)C)CC3)nc2)cc1 is 208 to 209 °C

###

READOUT: melting point

Known results for molecules:
Memo: CC(C)(C)OC(=O)OCC(COC(=O)OC(C)(C)C)OCn1cnc2c(=O)[nH]c(N)nc21 , reported melting point: 192 to 193 °C

melting point measured on Cc1sc(C(=O)O)c2c1-c1nn(Cc3ccccc3)cc1CC2 = 231 to 232 °C

// O=S(=O)(Br)c1cccc2cccnc12 : melting point value = 142 to 144 °C

// recorded melting point for O=C1C(=O)c2ccccc2C2=C1SCC1(CCN(Cc3ccc(F)cc3F)CC1)O2 : 104 to 107 °C

Looking up COC(=O)CSC(CCCc1ccccc1)c1ccc(OCc2ccc3ccc(F)cc3n2)cc1 (stereo not drawn) , I found its melting point recorded as 64 to 66 °C

The reported value for O[C@@H]1CNC[C@H]1Oc1ccccc1 (relative stereo) in terms of melting point is 120 to 122 °C

melting point for CCCCCCN(CCCCCC)C(=O)COc1cc(C(=O)O)c([N+](=O)[O-])c(C(=O)O)c1 is 180 to 184 °C

molecule Cc1oc(-c2ccccc2)nc1COc1ccc(CON)cc1 , melting point observed: 68 to 69 °C

Sure, the documented melting point for O=C(C=Cc1cccc(Br)c1)Nc1ccc(CN2CCCCC2)cc1 is 144 to 145 °C

Notebook: O=C(O)c1c(-c2ccccc2)c(=O)[nH]c2cc(Cl)ccc12 , melting point read as 258 °C

Continuing:
Lab note: Fc1ccc(Oc2cnc3c(-c4ccccc4Cl)n[nH]c3n2)c(F)c1 gave melting point of 240 to 242 °C

Consider NC(=O)c1c(C(=O)O)cnn1-c1ccc(Cl)cc1Cl . Its measured melting point is 239 to 240 °C

Reported melting point for COC(=O)c1cn(CCO)nc1[N+](=O)[O-] was 93 to 95 °C

Briefly, melting point measured for Cc1cc(N)ccc1-c1ccccc1CO : 108 to 112 °C

COC(=O)c1cc(-c2ccc(F)c(C)c2)nn(CC=Cc2ccccc2)c1=O has a reported melting point of 95.9 to 96.7 °C

Short answer for N#CCOc1ccc(Cl)cc1-n1nncc1-c1cccc(C(F)(F)F)c1 : melting point was 145 to 146 °C

# molecule ON=Cc1csc2ccccc12 ; its melting point = 87 to 89 °C

get_value(item= COc1cc2ncnc(Nc3cccc(Cl)c3F)c2cc1OC1CCN(C(=O)CO)CC1 , readout=melting point) returns 196 °C

Lab note: measured melting point of O=C(OC1c2nccnc2C(=O)N1c1ccc2ccc(Cl)nc2n1)N1CCCCC1 (stereo not drawn) was 249 °C

// CCOc1nc(O)ns1 : melting point value = 98 °C

Lab book: melting point of Brc1ccc(N2CCOCC2)cc1 noted as 118 to 120 °C

###

# melting point values compiled below

compound COc1cc2c(cc1-c1cccnc1)-c1c(-c3cccs3)c3c(n1CC2)C(=O)N(C(C)C)CCNC3 , melting point observed: 227 to 229 °C

The reported melting point of the compound COC(=O)c1cn2c3c(c(OS(C)(=O)=O)c(F)cc3c1=O)CCN2C was 247 to 250 °C

***
melting point measured on Nc1cc2c(=O)cc(C(=O)O)[nH]c2ccc1=O = > 250 °C

Entry O=C(CCl)c1cccn1Cc1ccccc1[N+](=O)[O-] — recorded melting point = 112 to 114 °C

// melting point lookup, compound = Cc1cc(F)ccc1-c1nc(OCCCS(C)(=O)=O)nc2c1ccc(=O)n2-c1c(F)cccc1F , result: 160 to 162 °C

Noted for CC(C(=O)Nc1ccc2c(c1)CC(=O)N2)N1CCC(Cc2ccccc2)CC1 (centres undefined) : its melting point reads 153 to 155 °C

# compound CC(=O)N1CCn2nc(Nc3cc(-c4ccc5c(c4)NC(=O)C5)cn4ccnc34)cc2C1 ; its melting point = 161 to 165 °C

Lookup result for COc1cc2c(cc1OCc1ccccc1)C(OC)CN(Cc1cc(OC)c(OC)c(OC)c1)C2 (centres undefined) ; measured melting point: 89 to 90 °C

compound Cc1c(Cl)ccc(-n2c(-c3ccccc3)cc(=O)c(C)c2-c2ccccc2)c1Cl , melting point observed: 237 to 238 °C

###

Let's look at some molecules and their measured melting point.

A selection of reference data follows.
Per the record, CCC(Cc1ccc(OC)c(OCCc2ccc(C(F)(F)F)cc2)c1)C(=O)O (configuration not stated) has melting point of 64 to 66 °C

// field: melting point; key: O=C(O)CCc1cc2nc(Cl)ccc2n1S(=O)(=O)c1cccc(OC(F)(F)F)c1 ; value = 146 °C

Lookup result for CCCCCOc1ccc(OCC(O)CC#CCCCC(=O)O)cc1 (configuration not stated) ; measured melting point: 58 to 60 °C

Further cases:
What the record says about O=c1[nH]c2cc(Cl)ccc2c(=O)cc1NCc1ccccc1 : melting point is 309 to 314 °C

The molecule listed as COC(=O)[C@H](Cc1ccc([N+](=O)[O-])cc1)NC(C)=O shows melting point equal to 126 °C

###

Collected melting point values appear next to each entry.

Solved cases below.
Entry Cc1nnc(SCC(=O)C23CC4CC(CC(C4)C2)C3)n1C — recorded melting point = 113 to 114 °C

melting point recorded for this compound, CC12CCC(O)CC1CCC1C2CCC2(C)C(c3ccnnc3)CCC12O (stereo unspecified) , is 210 to 213 °C

Lab book: melting point of O=C(O)c1ccc(-c2cnc3c(c2)N(Cc2ccccc2)C(=O)CN3)cc1 noted as > 200 °C

Measured melting point, O=C(CC(=O)C(F)F)c1ccc(Br)s1 : 83.5 to 85 °C

Next:
The value of melting point measured for the compound O=C(O)C1Cc2sccc2C(=O)N1Cc1ccccc1 (stereo unspecified) turned out to be 258 °C

Field melting point (entry CCC(=O)N(CC)c1cccc(-c2ccc3nnc(C)n3n2)c1 ) reads 145 to 148 °C

Query CC(=O)CCC1CCC2C(C=CC3=CCCc4c3n2c2ccncc42)C1 (stereo unspecified) yields melting point of 102 °C

According to the records, this compound CN(CCO)c1ccnc(CO)c1Cl displays melting point of 49 to 53 °C

Looking up N#CN=C(NCCC(=O)O)Nc1ccc2nonc2c1 , I found its melting point recorded as 92 °C

What the record says about CCOC(=O)C1CCc2c(n(C(C)=O)c3ccc(Cl)cc23)C1 (stereo unspecified) : melting point is 95 to 96 °C

Entry Ic1ccc(Cc2ccc(I)cc2)cc1 ; melting point = 160 to 164 °C

###

READOUT: melting point

Known melting point results, listed for orientation:
Reported melting point for CC(=O)Nc1cccc(C(C)=O)c1C(=O)O was 131 °C

Record summary for CC(C)(C)OC(=O)Cc1nn(Cc2nc3cc(C(F)(F)F)ccc3s2)c(=O)c2cccnc12 : reported melting point = 121 to 122 °C

Query NNC(=O)c1cccc(-c2csc(N=C(N)N)n2)n1 yields melting point of 233 to 234 °C

---
// sample Cc1nn(-c2ccc(Cl)cc2Cl)c(=O)n(C)c1=O , its melting point was 109 to 110 °C

Reported melting point for CNC(=O)N(O)CCNC(=O)c1cccc(Oc2ccccc2)c1 was 161 to 162 °C

The molecule CCOC(=O)c1ccc2ncccc2c1 showed melting point equal to 66 to 67 °C

Per the records, this molecule ( CCCCC1Sc2c(cc(OC)c(Cl)c2Cl)C1O (stereo not given) ) has melting point equal to 95 to 96 °C

Short answer for ClC1=NN(c2ccccc2)CC1 : melting point was 92 to 93 °C

# melting point of NC(CO)(CO)CCc1ccc(C(=O)CCCCCc2ccccc2)cc1 = 118 to 120 °C

For record NC(=O)c1ccc(-c2cnc3c(c2)N(Cc2ccccc2)C(=O)CN3)cc1 the listed melting point is > 200 °C

Measured melting point, CC(=O)C(=Cc1c(-c2ccccc2)nc2sc(C)nn12)C(=O)N(C)C : 185 to 187 °C

So for CC(C)C(O)(C#Cc1cccs1)c1cncnc1 (stereo not given) , the logged melting point turned out to be 113 to 114 °C

According to the records, this molecule CCn1c(O)cc(C)c(C#N)c1=O displays melting point of 230 to 237 °C

Value of measured melting point for the entry CCOc1c(C)c(N2CCN(c3ccc(OC)cc3)CC2)c(C)c2c1OC(C)(C)C2 : 151 to 153 °C

Record CCOC(=O)CC[C@H](NC(=O)c1ccc(NCCCc2c(N(C(C)=O)C(C)=O)nc(NC(C)=O)[nH]c2=O)c(OC)c1)C(=O)OCC . Reported melting point: 73 to 84 °C

Per the record, Nc1nccc(-c2cccc(OCC(O)CN3CCN(c4cccc(Cl)c4)CC3)c2)n1 (stereo not given) has melting point of 140 to 141 °C

The measured melting point associated with O=C(O)c1ccc(CCCOCCCCCCNCC(O)c2ccc(O)c(CO)c2)cc1 (stereo not given) reads 50 to 58 °C

Lab book: melting point of CC(C)CC(NC(=O)C(Cc1c[nH]cn1)NC(=O)C(CC(=O)N1CCOCC1)Cc1cccc2ccccc12)C(O)C(=O)OC(C)C (mixture of isomers) noted as 95 to 98 °C

So, O=C(C=C1CC(C(=O)O)Nc2cc(Cl)ccc21)Nc1ccccc1 (racemic) ? Its melting point was 118 to 120 °C

// melting point lookup, molecule = CS(=O)c1ccc(-c2coc3ccc(-c4nnc(S)o4)cc23)cc1 (stereo not given) , result: 234 to 235 °C

Values from a melting point compilation (Tetko et al.; mined from patent text by program, amines drawn as free bases though some values may be those of a salt)
